The reported measurements were obtained from patent US20250276075A1.

Biological target: T1, Axl (Homo sapiens, UniProt P30530)
T1 sequence (P30530 26-451 limits assumed): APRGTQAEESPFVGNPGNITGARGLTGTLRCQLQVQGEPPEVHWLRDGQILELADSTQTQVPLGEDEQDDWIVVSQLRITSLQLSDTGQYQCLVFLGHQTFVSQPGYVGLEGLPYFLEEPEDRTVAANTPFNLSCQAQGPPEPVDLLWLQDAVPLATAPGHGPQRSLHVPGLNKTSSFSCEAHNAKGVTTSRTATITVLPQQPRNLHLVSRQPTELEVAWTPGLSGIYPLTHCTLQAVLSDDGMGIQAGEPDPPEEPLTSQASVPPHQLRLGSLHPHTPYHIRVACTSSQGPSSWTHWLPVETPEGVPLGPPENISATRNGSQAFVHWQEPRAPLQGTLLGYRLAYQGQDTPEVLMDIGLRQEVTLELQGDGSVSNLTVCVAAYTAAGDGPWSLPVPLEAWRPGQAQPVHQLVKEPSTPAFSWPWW
Assay: Affinity ELISA of CPE mutant antibodies for binding to Axl at pH 6.0 over pH 7.4
Conditions: light chain variable region mutants; 1:3 dilution
ATTRIBUTE MEASURED: Affinity ELISA CPE mutant ratio (1:3, pH 6.0/7.4)
Please reply with the number alone, leaving off any unit.

# MOLECULE, NUMERIC READOUT
data = [
    ("LC-F092D (antibody, V domains shown) VH: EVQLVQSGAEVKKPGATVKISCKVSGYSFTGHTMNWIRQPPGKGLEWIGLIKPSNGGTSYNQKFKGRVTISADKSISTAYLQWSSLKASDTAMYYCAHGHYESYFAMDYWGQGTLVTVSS VL: DIQMTQSPSSLSASVGDRVTITCKASQDVSSAVAWYQQKPGQAPRLLIYWASTRHTGVPSRFSGSGSGTEFTLTISSLQPDDFATYYCQEHDSTPLTFGQGTKVEIK", 2.969),
    ("LC-A034Q (antibody, V domains shown) VH: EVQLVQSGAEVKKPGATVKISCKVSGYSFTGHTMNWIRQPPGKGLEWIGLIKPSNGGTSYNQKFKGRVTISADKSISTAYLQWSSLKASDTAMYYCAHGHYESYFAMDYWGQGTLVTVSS VL: DIQMTQSPSSLSASVGDRVTITCKASQDVSSAVQWYQQKPGQAPRLLIYWASTRHTGVPSRFSGSGSGTEFTLTISSLQPDDFATYYCQEHFSTPLTFGQGTKVEIK", 1.999),
    ("LC-V029W (antibody, V domains shown) VH: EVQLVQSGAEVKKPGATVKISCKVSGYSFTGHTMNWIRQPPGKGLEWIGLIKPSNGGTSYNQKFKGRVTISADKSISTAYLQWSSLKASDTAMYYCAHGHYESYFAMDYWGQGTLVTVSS VL: DIQMTQSPSSLSASVGDRVTITCKASQDWSSAVAWYQQKPGQAPRLLIYWASTRHTGVPSRFSGSGSGTEFTLTISSLQPDDFATYYCQEHFSTPLTFGQGTKVEIK", 2.310),
    ("LC-H091F (antibody, V domains shown) VH: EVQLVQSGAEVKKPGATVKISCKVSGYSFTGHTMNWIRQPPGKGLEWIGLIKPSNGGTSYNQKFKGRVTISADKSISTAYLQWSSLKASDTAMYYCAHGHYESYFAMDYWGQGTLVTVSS VL: DIQMTQSPSSLSASVGDRVTITCKASQDVSSAVAWYQQKPGQAPRLLIYWASTRHTGVPSRFSGSGSGTEFTLTISSLQPDDFATYYCQEFFSTPLTFGQGTKVEIK", 1.603),
    ("LC-P095D (antibody, V domains shown) VH: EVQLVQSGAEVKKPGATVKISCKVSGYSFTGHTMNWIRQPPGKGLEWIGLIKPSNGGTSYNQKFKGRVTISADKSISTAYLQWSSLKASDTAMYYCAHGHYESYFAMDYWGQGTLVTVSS VL: DIQMTQSPSSLSASVGDRVTITCKASQDVSSAVAWYQQKPGQAPRLLIYWASTRHTGVPSRFSGSGSGTEFTLTISSLQPDDFATYYCQEHFSTDLTFGQGTKVEIK", 3.949),
]

Next molecule, Affinity ELISA CPE mutant ratio (1:3, pH 6.0/7.4) to be filled in.
Q: I'd like to know its Affinity ELISA CPE mutant ratio (1:3, pH 6.0/7.4). The molecule in question is LC-H091I (antibody, V domains shown) VH: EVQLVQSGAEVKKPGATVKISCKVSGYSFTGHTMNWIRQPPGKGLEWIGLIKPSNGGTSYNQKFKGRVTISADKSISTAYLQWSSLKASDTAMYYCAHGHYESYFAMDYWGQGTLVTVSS VL: DIQMTQSPSSLSASVGDRVTITCKASQDVSSAVAWYQQKPGQAPRLLIYWASTRHTGVPSRFSGSGSGTEFTLTISSLQPDDFATYYCQEIFSTPLTFGQGTKVEIK
Ans: 1.550
